Substrate: OCCO
Protocol notes: purified protein
Type: biochemical, Paracoccus denitrificans
Details: 100 mM glycine-NaOH pH 10, 2.4 mM NAD+, 30 °C, oxidation
Measurement type: kcat (s⁻¹)
Give the quantity in s⁻¹, number only.

Quick check: kcat of EtgB (Paracoccus denitrificans PD1222; T44S) (protein, pET16b, His-tagged, E. coli BL21 AI, Ni-NTA purified; homotetramer; zinc-dependent medium-chain alcohol dehydrogenase) MAKTMKAAVVREFGKPLTIDEVPVPEPGPGMIQVRIQASGVCHSDLHAAEGDWPVKPNPPFIPGHEGVGFVSAVGAGVKHVKEGDRVGVPWLYTACGHCRHCLGGWETLCESQLNTGYSVNGGFADYVVADPNYVGHLPKNVDFLDIAPVLCAGVTVYKGLKVTDTKPGDWVVISGIGGLGHMAVQYAKAMGMNVAAVDIDDEKLALARKLGATVTVNAATEPDPAAAIRKQTDGGAQGVLVTAVGRKAFEQAIGMVARGGTVALNGLPPGDFPLDIFGMVLNGITVRGSIVGTRLDLQESLDFAGDGKVKATVHKAKLEDINNIFGQMHKGQIEGRMVLDMAG ?
0.7

Moving on to the next protein: EtgB (Paracoccus denitrificans PD1222; H47N/T44S) (protein, pET16b, His-tagged, E. coli BL21 AI, Ni-NTA purified; homotetramer; zinc-dependent medium-chain alcohol dehydrogenase) MAKTMKAAVVREFGKPLTIDEVPVPEPGPGMIQVRIQASGVCHSDLNAAEGDWPVKPNPPFIPGHEGVGFVSAVGAGVKHVKEGDRVGVPWLYTACGHCRHCLGGWETLCESQLNTGYSVNGGFADYVVADPNYVGHLPKNVDFLDIAPVLCAGVTVYKGLKVTDTKPGDWVVISGIGGLGHMAVQYAKAMGMNVAAVDIDDEKLALARKLGATVTVNAATEPDPAAAIRKQTDGGAQGVLVTAVGRKAFEQAIGMVARGGTVALNGLPPGDFPLDIFGMVLNGITVRGSIVGTRLDLQESLDFAGDGKVKATVHKAKLEDINNIFGQMHKGQIEGRMVLDMAG
2.9

Let us now turn to EtgB, NAD-dependent alcohol dehydrogenase (Pden_2367) (enzyme, Paracoccus denitrificans DSM 413, The enzyme holds zinc ions; also called EtgB WT; alcohol dehydrogenase EtgB; source: E. coli BL21 AI, purified (Ni-NTA, desalting, size exclusion on Superdex 200 Increase)) MAKTMKAAVVREFGKPLTIDEVPVPEPGPGMIQVRIQASGVCHTDLHAAEGDWPVKPNPPFIPGHEGVGFVSAVGAGVKHVKEGDRVGVPWLYTACGHCRHCLGGWETLCESQLNTGYSVNGGFADYVVADPNYVGHLPKNVDFLDIAPVLCAGVTVYKGLKVTDTKPGDWVVISGIGGLGHMAVQYAKAMGMNVAAVDIDDEKLALARKLGATVTVNAATEPDPAAAIRKQTDGGAQGVLVTAVGRKAFEQAIGMVARGGTVALNGLPPGDFPLDIFGMVLNGITVRGSIVGTRLDLQESLDFAGDGKVKATVHKAKLEDINNIFGQMHKGQIEGRMVLDMAG
7.2

Moving on to the next protein: EtgB (Paracoccus denitrificans PD1222; H47N) (protein, pET16b, His-tagged, E. coli BL21 AI, Ni-NTA purified; homotetramer; zinc-dependent medium-chain alcohol dehydrogenase) MAKTMKAAVVREFGKPLTIDEVPVPEPGPGMIQVRIQASGVCHTDLNAAEGDWPVKPNPPFIPGHEGVGFVSAVGAGVKHVKEGDRVGVPWLYTACGHCRHCLGGWETLCESQLNTGYSVNGGFADYVVADPNYVGHLPKNVDFLDIAPVLCAGVTVYKGLKVTDTKPGDWVVISGIGGLGHMAVQYAKAMGMNVAAVDIDDEKLALARKLGATVTVNAATEPDPAAAIRKQTDGGAQGVLVTAVGRKAFEQAIGMVARGGTVALNGLPPGDFPLDIFGMVLNGITVRGSIVGTRLDLQESLDFAGDGKVKATVHKAKLEDINNIFGQMHKGQIEGRMVLDMAG
14.7

These measurements were taken from paper PMC12214560.
